So I've got a bunch of compounds here, and I need their RBA values.
Biological target: Estrogen receptor beta (Homo sapiens)
Sequence (Q92731 whole entry): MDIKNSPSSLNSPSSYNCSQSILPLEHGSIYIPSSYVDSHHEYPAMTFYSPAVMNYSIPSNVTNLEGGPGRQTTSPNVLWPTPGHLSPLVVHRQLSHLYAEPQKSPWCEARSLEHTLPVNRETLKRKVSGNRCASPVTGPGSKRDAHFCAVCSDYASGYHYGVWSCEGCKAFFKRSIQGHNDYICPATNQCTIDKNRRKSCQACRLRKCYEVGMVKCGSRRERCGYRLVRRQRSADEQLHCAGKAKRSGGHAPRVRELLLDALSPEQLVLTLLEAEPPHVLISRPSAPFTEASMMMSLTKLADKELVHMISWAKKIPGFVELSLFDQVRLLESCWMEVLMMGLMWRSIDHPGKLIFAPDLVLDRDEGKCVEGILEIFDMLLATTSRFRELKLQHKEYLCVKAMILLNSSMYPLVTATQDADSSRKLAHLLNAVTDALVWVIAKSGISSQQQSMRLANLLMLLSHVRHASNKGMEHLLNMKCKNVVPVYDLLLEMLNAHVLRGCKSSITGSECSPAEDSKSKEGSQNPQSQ
Test: Binding affinity to ERbeta (unknown origin) assessed as relative binding affinity incubated for 2 hrs by fluorescence polarization assay relative to estradiol

The recorded RBA with Estrogen receptor beta (Homo sapiens) for COc1ccc(N(CC(F)(F)F)S(=O)(=O)C2CC3OC2C(c2ccc(OCCCCCC(=O)N[C@H](C(=O)N4C[C@H](O)C[C@H]4C(=O)N[C@@H](C)c4ccc(-c5scnc5C)cc4)C(C)(C)C)cc2)=C3c2ccc(O)cc2)cc1 (stereo not given in full) was 0.03%

The recorded RBA with Estrogen receptor beta (Homo sapiens) for Cc1ncsc1-c1ccc([C@H](C)NC(=O)[C@@H]2C[C@@H](O)CN2C(=O)[C@@H](NC(=O)CCCCCOc2ccc(N(CC(F)(F)F)S(=O)(=O)C3CC4OC3C(c3ccc(O)cc3)=C4c3ccc(O)cc3)cc2)C(C)(C)C)cc1 (stereo not given in full) was 0.03%

The recorded RBA with Estrogen receptor beta (Homo sapiens) for CCN(c1ccc(OCCCCCCC(=O)N[C@H](C(=O)N2C[C@H](O)C[C@H]2C(=O)NCc2ccc(-c3scnc3C)cc2)C(C)(C)C)cc1)S(=O)(=O)C1CC2OC1C(c1ccc(O)cc1)=C2c1ccc(O)cc1 (stereo not given in full) was 0.12%

The recorded RBA with Estrogen receptor beta (Homo sapiens) for CCN(c1ccc(OCCCCCCCC(=O)N[C@H](C(=O)N2C[C@H](O)C[C@H]2C(=O)NCc2ccc(-c3scnc3C)cc2)C(C)(C)C)cc1)S(=O)(=O)C1CC2OC1C(c1ccc(O)cc1)=C2c1ccc(O)cc1 (stereo not given in full) was 0.1%

The recorded RBA with Estrogen receptor beta (Homo sapiens) for CCN(c1ccc(OC)cc1)S(=O)(=O)C1CC2OC1C(c1ccc(O)cc1)=C2c1ccc(O)cc1 (stereo not given) was 0.31%

The recorded RBA with Estrogen receptor beta (Homo sapiens) for CCN(c1ccc(OCCCCCC(=O)N[C@H](C(=O)N2C[C@@H](O)C[C@H]2C(=O)N[C@@H](C)c2ccc(-c3scnc3C)cc2)C(C)(C)C)cc1)S(=O)(=O)C1CC2OC1C(c1ccc(O)cc1)=C2c1ccc(O)cc1 (stereo not given in full) was 0.16%

The recorded RBA with Estrogen receptor beta (Homo sapiens) for O=C(COc1cccc2c1C(=O)N(C1CCC(=O)NC1=O)C2=O)NCCCCCCCCOc1ccc(N(CC(F)(F)F)S(=O)(=O)C2CC3OC2C(c2ccc(O)cc2)=C3c2ccc(O)cc2)cc1 (stereo not given) was 0.16%

The recorded RBA with Estrogen receptor beta (Homo sapiens) for COc1ccc(N(CC(F)(F)F)S(=O)(=O)C2CC3OC2C(c2ccc(OCCCCCC(=O)N[C@H](C(=O)N4C[C@H](O)C[C@H]4C(=O)NCc4ccc(-c5scnc5C)cc4)C(C)(C)C)cc2)=C3c2ccc(O)cc2)cc1 (stereo not given in full) was 0.07%

The recorded RBA with Estrogen receptor beta (Homo sapiens) for O=C(COc1cccc2c1C(=O)N(C1CCC(=O)NC1=O)C2=O)NCCCCCCOc1ccc(N(CC(F)(F)F)S(=O)(=O)C2CC3OC2C(c2ccc(O)cc2)=C3c2ccc(O)cc2)cc1 (stereo not given) was 0.1%

The recorded RBA with Estrogen receptor beta (Homo sapiens) for Cc1ncsc1-c1ccc([C@H](C)NC(=O)[C@@H]2C[C@H](O)CN2C(=O)[C@@H](NC(=O)CCCCCOc2ccc(N(CC(F)(F)F)S(=O)(=O)C3CC4OC3C(c3ccc(O)cc3)=C4c3ccc(O)cc3)cc2)C(C)(C)C)cc1 (stereo not given in full) was 0.05%

The recorded RBA with Estrogen receptor beta (Homo sapiens) for CCN(c1ccc(OCCCCCCCCCC(=O)N[C@H](C(=O)N2C[C@H](O)C[C@H]2C(=O)NCc2ccc(-c3scnc3C)cc2)C(C)(C)C)cc1)S(=O)(=O)C1CC2OC1C(c1ccc(O)cc1)=C2c1ccc(O)cc1 (stereo not given in full) was 0.08%

The recorded RBA with Estrogen receptor beta (Homo sapiens) for CCN(c1ccc(OCCCCC(=O)N[C@H](C(=O)N2C[C@H](O)C[C@H]2C(=O)N[C@@H](C)c2ccc(-c3scnc3C)cc2)C(C)(C)C)cc1)S(=O)(=O)C1CC2OC1C(c1ccc(O)cc1)=C2c1ccc(O)cc1 (stereo not given in full) was 0.11%

The recorded RBA with Estrogen receptor beta (Homo sapiens) for O=C(COc1cccc2c1C(=O)N(C1CCC(=O)NC1=O)C2=O)NCCCCOc1ccc(N(CC(F)(F)F)S(=O)(=O)C2CC3OC2C(c2ccc(O)cc2)=C3c2ccc(O)cc2)cc1 (stereo not given) was 0.07%

The recorded RBA with Estrogen receptor beta (Homo sapiens) for CCN(c1ccc(OCCCCCC(=O)N[C@H](C(=O)N2C[C@H](O)C[C@H]2C(=O)N[C@@H](C)c2ccc(-c3scnc3C)cc2)C(C)(C)C)cc1)S(=O)(=O)C1CC2OC1C(c1ccc(O)cc1)=C2c1ccc(O)cc1 (stereo not given in full) was 0.06%

The recorded RBA with Estrogen receptor beta (Homo sapiens) for CCN(c1ccc(OCCCCCCC(=O)N[C@H](C(=O)N2C[C@H](O)C[C@H]2C(=O)N[C@@H](C)c2ccc(-c3scnc3C)cc2)C(C)(C)C)cc1)S(=O)(=O)C1CC2OC1C(c1ccc(O)cc1)=C2c1ccc(O)cc1 (stereo not given in full) was 0.07%

The recorded RBA with Estrogen receptor beta (Homo sapiens) for CCN(c1ccc(OCCCCCC(=O)Nc2cccc3c2C(=O)N(C2CCC(=O)NC2=O)C3=O)cc1)S(=O)(=O)C1CC2OC1C(c1ccc(O)cc1)=C2c1ccc(O)cc1 (stereo not given) was 0.18%

The recorded RBA with Estrogen receptor beta (Homo sapiens) for CCN(c1ccc(OCCCCC(=O)N[C@H](C(=O)N2C[C@H](O)C[C@H]2C(=O)NCc2ccc(-c3scnc3C)cc2)C(C)(C)C)cc1)S(=O)(=O)C1CC2OC1C(c1ccc(O)cc1)=C2c1ccc(O)cc1 (stereo not given in full) was 0.13%

The recorded RBA with Estrogen receptor beta (Homo sapiens) for O=C(COc1ccc(C2CCC(=O)NC2=O)cc1)NCCCCNC(=O)COc1ccc(N(CC(F)(F)F)S(=O)(=O)C2CC3OC2C(c2ccc(O)cc2)=C3c2ccc(O)cc2)cc1 (stereo not given) was 0.18%

The recorded RBA with Estrogen receptor beta (Homo sapiens) for O=C(COc1ccc(C2CCC(=O)NC2=O)cc1)NCCCCCCNC(=O)COc1ccc(N(CC(F)(F)F)S(=O)(=O)C2CC3OC2C(c2ccc(O)cc2)=C3c2ccc(O)cc2)cc1 (stereo not given) was 0.11%

The recorded RBA with Estrogen receptor beta (Homo sapiens) for CCN(c1ccc(OCCCCCCCCC(=O)N[C@H](C(=O)N2C[C@H](O)C[C@H]2C(=O)NCc2ccc(-c3scnc3C)cc2)C(C)(C)C)cc1)S(=O)(=O)C1CC2OC1C(c1ccc(O)cc1)=C2c1ccc(O)cc1 (stereo not given in full) was 0.07%

All values here come from ChEMBL document CHEMBL5338775.
